Provide the recorded protein stability index for the entries that follow.
B1: KCNG1 (parent)
chain: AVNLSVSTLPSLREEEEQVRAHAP

Variants of: B1
assay remarks: protein stability index of a GFP-peptide fusion (GPS, HEK-293T) (PSI 1-6); higher = more stable;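 also: lentivirally expressed fusions sorted by FACS into six bins by GFP to DsRed ratio, PSI derived from sequencing read proportions per bin multiplied by bin number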
test settings: c terminus: a fixed tail appended
Answer with a bare number; do not write a unit.

Give reported protein stability index value for "R20I"
5.14

Give reported protein stability index value for "Q18C"
4.98

Give reported protein stability index value for "T8I"
4.12

Give reported protein stability index value for "E17G"
4.64

Give reported protein stability index value for "P24S"
4.84

Give reported protein stability index value for "P24N"
5.34

Give reported protein stability index value for "V2R"
5.04

Give reported protein stability index value for "E17R"
4.61

Give reported protein stability index value for "E16G"
4.67

Give reported protein stability index value for "A23I"
4.82

Give reported protein stability index value for "A23M"
4.83
